- Tested on: Mycolicibacterium smegmatis
- testDetails: Antimycobacterial activity against Mycobacterium smegmatis (SANK 75075)
- Format: functional
assayReadout: MIC (µg/mL)
Your answer should be a plain number; it is taken to be in µg/mL.

givenSmiles: CO[C@H]1[C@@H](O)[C@H](n2ccc(=O)[nH]c2=O)O[C@@H]1[C@@H](O[C@H]1OC(C(=O)Nc2ccc(F)cc2)=C[C@H](O)[C@@H]1O)C(N)=O
measuredResult: 6.25
//
givenSmiles: CO[C@H]1[C@@H](O)[C@H](n2ccc(=O)[nH]c2=O)O[C@@H]1[C@@H](O[C@H]1OC(C(=O)Nc2ccc(Cl)cc2)=C[C@H](O)[C@@H]1O)C(N)=O
measuredResult: 6.25

Item: `CO[C@H]1[C@@H](O)[C@H](n2ccc(=O)[nH]c2=O)O[C@@H]1[C@@H](O[C@H]1OC(C(=O)NCCCSC)=C[C@H](O)[C@@H]1O)C(N)=O` Test system: Mycolicibacterium smegmatis Read-out: MIC Value: ? 50

What value of MIC on Mycolicibacterium smegmatis does `CO[C@H]1[C@@H](O)[C@H](n2ccc(=O)[nH]c2=O)O[C@@H]1[C@@H](O[C@H]1OC(C(=O)N[C@H]2CCCCNC2=O)=C[C@H](O)[C@@H]1O)C(N)=O` have? 12.5

Notebook entry, Mycolicibacterium smegmatis assay: MIC of `CO[C@H]1[C@@H](O)[C@H](n2ccc(=O)[nH]c2=O)O[C@@H]1[C@@H](O[C@H]1OC(C(=O)Nc2nc(C(C)(C)C)cs2)=C[C@H](O)[C@@H]1O)C(N)=O` = ? 100

# credit: ChEMBL document CHEMBL1136174
